This collection of values is drawn from paper PMC6130797.

Entries and their Kb
test-target: gpH1R (Cavia porcellus)
Sequence (P31389 whole entry): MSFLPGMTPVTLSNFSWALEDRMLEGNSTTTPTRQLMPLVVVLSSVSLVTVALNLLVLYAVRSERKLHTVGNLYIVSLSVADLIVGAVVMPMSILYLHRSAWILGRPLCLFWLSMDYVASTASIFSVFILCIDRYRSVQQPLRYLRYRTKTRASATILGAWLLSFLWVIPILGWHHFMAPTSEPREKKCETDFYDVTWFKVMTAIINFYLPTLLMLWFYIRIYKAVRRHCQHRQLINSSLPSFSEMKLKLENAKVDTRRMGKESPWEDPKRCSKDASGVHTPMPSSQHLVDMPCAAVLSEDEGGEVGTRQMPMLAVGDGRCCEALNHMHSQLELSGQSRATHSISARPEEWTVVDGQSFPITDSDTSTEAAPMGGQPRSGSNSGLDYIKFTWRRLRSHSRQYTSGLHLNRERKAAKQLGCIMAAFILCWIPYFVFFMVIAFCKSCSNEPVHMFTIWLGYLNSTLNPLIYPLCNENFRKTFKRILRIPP
method-description: Histamine H1 receptor assay on isolated guinea pig ileum
Respond with the bare value in µM.

For the molecule shown here, N=C(NCCCCCCCCCCCCNC(=N)NCCCc1c[nH]cn1)NCCCc1c[nH]cn1 , give the reported Kb.
0.123

====

Entries and their pKi
test-target: hH2R (Homo sapiens)
Assay type: binding
run-conditions: hH2R pKi, [3H]tiotidine (Kd […], c = 10 nM); mean ± SEM
In textbook form, pKi equals minus log to base ten of the concentration in mol/L.

structure-smiles | pKi
CNC(=N)NCCCc1c[nH]cn1 | 5.56
CC(C)CCNC(=N)NCCCc1c[nH]cn1 | 6.10

For the compound shown here, CCCCCCCCCCNC(=N)NCCCc1c[nH]cn1 , give the reported pKi.
6.85

For N=C(NCCCCCCNC(=N)NCCCc1c[nH]cn1)NCCCc1c[nH]cn1 then?
6.82

For N=C(NCCCCCCCCNC(=N)NCCCn1ccnc1)NCCCn1ccnc1 then?
5.35

For N=C(NCCCCCCCCCCNC(=N)NCCCc1c[nH]cn1)NCCCc1c[nH]cn1 then?
7.47

For CCCCCCCCCCCCNC(=N)NCCCn1ccnc1 then?
5.90

For Cc1nc(N)sc1CCCNC(=N)NCCCCCCCCNC(=N)NCCCc1cnc(N)s1 then?
6.91

For N=C(NCCCCCCCCNC(=N)NCCCc1cnc(N)s1)NCCCc1cnc(N)s1 then?
6.63

For CCCNC(=N)NCCCc1c[nH]cn1 then?
5.52

====

test-target: hH1R (Homo sapiens, UniProt P35367)
Sequence (P35367 whole entry): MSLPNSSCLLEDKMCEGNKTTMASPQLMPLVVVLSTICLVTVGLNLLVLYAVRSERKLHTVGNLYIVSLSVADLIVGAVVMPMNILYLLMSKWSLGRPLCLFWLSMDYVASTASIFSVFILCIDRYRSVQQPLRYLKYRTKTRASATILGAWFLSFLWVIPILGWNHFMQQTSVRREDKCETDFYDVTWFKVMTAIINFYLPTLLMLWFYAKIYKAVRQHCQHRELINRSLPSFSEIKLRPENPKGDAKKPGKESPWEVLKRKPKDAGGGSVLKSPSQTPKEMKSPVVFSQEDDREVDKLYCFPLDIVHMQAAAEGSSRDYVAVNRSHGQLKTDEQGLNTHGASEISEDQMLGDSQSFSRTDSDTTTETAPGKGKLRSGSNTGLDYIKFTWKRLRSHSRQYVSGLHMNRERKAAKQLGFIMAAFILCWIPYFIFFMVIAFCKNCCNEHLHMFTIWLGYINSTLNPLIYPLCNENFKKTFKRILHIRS
method-description: biochemical
Assay type: binding
run-conditions: hH1R pKi
pKi: −log10 of the molar value.
property-measured: pKi

structure-smiles | pKi
N=C(NCCCNC(=N)NCCCc1c[nH]cn1)NCCCc1c[nH]cn1 | < 5.00

For the molecule shown here, CC(C)(C)NC(=N)NCCCc1c[nH]cn1 , give the reported pKi.
< 4.00

For N=C(NCCCCCCCCCCCCNC(=N)NCCCc1c[nH]cn1)NCCCc1c[nH]cn1 then?
6.45

For CCCCCCCCCCCCNC(=N)NCCCc1c[nH]cn1 then?
5.53

====

test-target: hH3R (Homo sapiens)
Sequence (Q9Y5N1 whole entry): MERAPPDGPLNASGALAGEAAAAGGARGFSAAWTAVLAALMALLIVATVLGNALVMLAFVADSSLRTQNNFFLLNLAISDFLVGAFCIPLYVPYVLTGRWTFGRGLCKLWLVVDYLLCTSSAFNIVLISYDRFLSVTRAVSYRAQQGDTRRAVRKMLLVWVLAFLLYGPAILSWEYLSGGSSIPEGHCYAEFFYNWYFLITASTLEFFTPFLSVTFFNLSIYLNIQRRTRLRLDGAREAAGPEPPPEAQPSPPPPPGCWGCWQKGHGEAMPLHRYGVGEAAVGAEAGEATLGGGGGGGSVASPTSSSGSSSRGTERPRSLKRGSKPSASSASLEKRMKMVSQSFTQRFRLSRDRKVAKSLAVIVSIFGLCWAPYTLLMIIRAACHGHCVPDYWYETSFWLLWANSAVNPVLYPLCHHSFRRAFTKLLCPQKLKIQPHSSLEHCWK
property-measured: Kd
The reply should consist of the numeric value with the unit placed after it.

What is its Kd for hH3R (Homo sapiens)? Entry: CNCCc1cnc[nH]1 [[^3H]N^α-methylhistamine, reference compound]
8.6 nM

====

test-target: hH3R (Homo sapiens)
method-description: Radioligand competition binding with [3H]Nα-methylhistamine, Sf9 cell membranes
run-conditions: hH3R pKi, [3H]Nα-methylhistamine (Kd 8.6 nM, c = 3 nM); mean ± SEM
Just a reminder that ties go to -1: only Ki strictly below 100 nM counts as 1.

Here are 4 compounds together with their reported answers.
structure-smiles | category-label
CCCCCCCCCCNC(=N)NCCCc1c[nH]cn1 | 1
N=C(NCCCCCCCCCCNC(=N)NCCCc1c[nH]cn1)NCCCc1c[nH]cn1 | 1
CC(C)CNC(=N)NCCCc1c[nH]cn1 | 1
CCCCCCCCCCCCNC(=N)NCCCn1ccnc1 | -1

# next compound below
Hello, is Ki of the following compound strictly smaller than 100 nM? CC(C)CCNC(=N)NCCCc1c[nH]cn1
-1

====

Entries and their EC50
test-target: hH2R (Homo sapiens, UniProt P25021)
Sequence (P25021 whole entry): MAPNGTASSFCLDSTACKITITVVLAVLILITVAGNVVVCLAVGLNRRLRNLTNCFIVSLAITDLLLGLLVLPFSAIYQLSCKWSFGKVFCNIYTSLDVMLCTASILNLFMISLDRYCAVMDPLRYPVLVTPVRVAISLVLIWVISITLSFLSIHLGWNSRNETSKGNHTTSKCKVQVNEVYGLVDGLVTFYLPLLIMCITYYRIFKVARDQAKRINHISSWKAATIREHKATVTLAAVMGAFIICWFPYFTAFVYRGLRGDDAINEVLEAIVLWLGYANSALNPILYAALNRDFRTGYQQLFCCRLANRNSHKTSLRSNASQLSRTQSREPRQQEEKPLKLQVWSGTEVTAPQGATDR
Sequence (P63092 1-380 isoform P63092-2 partner): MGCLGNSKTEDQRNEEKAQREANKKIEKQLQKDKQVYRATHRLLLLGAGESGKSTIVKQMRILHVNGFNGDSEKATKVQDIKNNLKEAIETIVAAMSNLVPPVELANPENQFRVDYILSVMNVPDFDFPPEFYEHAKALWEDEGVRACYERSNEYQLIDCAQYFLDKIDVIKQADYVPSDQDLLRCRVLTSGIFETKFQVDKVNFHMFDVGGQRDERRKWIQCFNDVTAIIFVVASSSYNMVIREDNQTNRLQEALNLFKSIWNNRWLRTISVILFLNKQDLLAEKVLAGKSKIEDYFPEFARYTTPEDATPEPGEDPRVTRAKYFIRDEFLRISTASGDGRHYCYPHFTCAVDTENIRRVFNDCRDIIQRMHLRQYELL
method-description: [35S]GTPγS binding assay, Sf9 cell membranes
Respond with the bare value in nM.

Examples with their reported EC50 follow.
compound | test-target | measurement-unit | EC50
Cc1nc(N)sc1CCCNC(=N)NCCCCCCCCNC(=N)NCCCc1cnc(N)s1 [Compound 63] | hH2R (Homo sapiens, UniProt P25021) | nM | 251
N=C(NCCCCCCCCNC(=N)NCCCc1c[nH]cn1)NCCCc1c[nH]cn1 [Compound 5] | hH2R (Homo sapiens, UniProt P25021) | nM | 166
N=C(NCCCCCCCCCCCCNC(=N)NCCCc1c[nH]cn1)NCCCc1c[nH]cn1 [Compound 57] | hH2R (Homo sapiens, UniProt P25021) | nM | 53.7
CCCCCCCCCCCCNC(=N)NCCCc1sc(N)nc1C [Compound 139] | hH2R (Homo sapiens, UniProt P25021) | nM | 6920

For the compound shown here, Cc1nc(N)sc1CCCNC(=N)NCCCCCCCCNC(=N)NCCCc1c[nH]cn1 [Compound 61] , give the reported EC50.
589

For Cc1nc(N)sc1CCCNC(=N)NCCCCCCCCNC(=N)NCCCc1sc(N)nc1C [Compound 58] then?
245

For N=C(NCCCCCCCCNC(=N)NCCCc1cnc(N)s1)NCCCc1cnc(N)s1 [Compound 59] then?
295

For CCCCCCCCNC(=N)NCCCc1c[nH]cn1 [Compound 136] then?
138

For N=C(NCCCCCCCCNC(=N)NCCCc1cnc(N)s1)NCCCc1c[nH]cn1 [Compound 62] then?
309

====

Entries and their EC50
test-target: rH2R (Rattus norvegicus)
Sequence (P25102 whole entry, one chain of several): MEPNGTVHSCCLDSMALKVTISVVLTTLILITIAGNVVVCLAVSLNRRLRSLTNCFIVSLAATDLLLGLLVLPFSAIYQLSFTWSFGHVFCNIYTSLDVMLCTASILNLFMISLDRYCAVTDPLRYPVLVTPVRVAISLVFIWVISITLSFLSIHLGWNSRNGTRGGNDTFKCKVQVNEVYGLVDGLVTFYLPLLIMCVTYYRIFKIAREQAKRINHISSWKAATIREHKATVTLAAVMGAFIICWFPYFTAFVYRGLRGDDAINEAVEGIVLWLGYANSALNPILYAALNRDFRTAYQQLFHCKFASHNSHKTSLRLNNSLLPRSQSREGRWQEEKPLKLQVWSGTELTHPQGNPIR
method-description: [35S]GTPγS binding assay, Sf9 cell membranes
Respond with the bare value in µM.

Examples with their reported EC50 follow.
compound | EC50 (µM)
N=C(NCCCCCCCCCCCCNC(=N)NCCCc1c[nH]cn1)NCCCc1c[nH]cn1 | 0.0245
NCCc1c[nH]cn1 [Compound 1, histamine, reference compound] | 1.07
N=C(NCCCCCCCCNC(=N)NCCCc1c[nH]cn1)NCCCc1c[nH]cn1 | 0.0661
Cc1nc(N)sc1CCCNC(=N)NCCCCCCCCNC(=N)NCCCc1cnc(N)s1 | 0.141

For the compound shown here, Cc1nc(N)sc1CCCNC(=N)NCCCCCCCCNC(=N)NCCCc1sc(N)nc1C , give the reported EC50.
0.148

====

test-target: UniProtKB Q9H3N8
Sequence (Q9H3N8 whole entry): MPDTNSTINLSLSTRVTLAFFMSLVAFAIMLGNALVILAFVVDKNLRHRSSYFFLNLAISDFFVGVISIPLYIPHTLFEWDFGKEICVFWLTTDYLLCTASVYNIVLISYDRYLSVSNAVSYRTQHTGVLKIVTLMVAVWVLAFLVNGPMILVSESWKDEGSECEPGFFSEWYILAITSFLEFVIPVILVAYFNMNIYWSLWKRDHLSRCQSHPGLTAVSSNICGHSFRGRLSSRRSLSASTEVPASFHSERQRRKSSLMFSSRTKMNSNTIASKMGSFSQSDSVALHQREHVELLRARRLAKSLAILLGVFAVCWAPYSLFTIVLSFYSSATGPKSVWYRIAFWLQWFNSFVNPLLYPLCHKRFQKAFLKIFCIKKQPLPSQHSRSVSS
method-description: [35S]GTPγS binding assay, Sf9 cell membranes
property-measured: pEC50
In textbook form, pEC50 equals minus log to base ten of the concentration in mol/L.

For the molecule shown here, CCCCCCCCCCCCNC(=N)NCCCc1sc(N)nc1C [Compound 139] , give the reported pEC50.
4.86

====

test-target: hH2R (Homo sapiens, UniProt P25021)
method-description: [35S]GTPγS binding assay, Sf9 cell membranes
Assay type: biochemical
Just a reminder that ties go to NOT MET: only hH2R Emax strictly below 0.5 counts as MET.

compound | category-label
CCCCCCCCNC(=N)NCCCc1c[nH]cn1 [Compound 136] | MET
Cc1nc(N)sc1CCCNC(=N)NCCCCCCCCNC(=N)NCCCc1cnc(N)s1 [Compound 63] | MET

Hello, is hH2R Emax of the following compound strictly smaller than 0.5? N=C(NCCCCCCCCCCCCNC(=N)NCCCc1c[nH]cn1)NCCCc1c[nH]cn1 [Compound 57]
NOT MET

For N=C(NCCCCCCCCNC(=N)NCCCc1cnc(N)s1)NCCCc1c[nH]cn1 [Compound 62] then?
MET

For Cc1nc(N)sc1CCCNC(=N)NCCCCCCCCNC(=N)NCCCc1c[nH]cn1 [Compound 61] then?
NOT MET

For Cc1nc(N)sc1CCCNC(=N)NCCCCCCCCNC(=N)NCCCc1sc(N)nc1C [Compound 58] then?
MET

For N=C(NCCCCCCCCNC(=N)NCCCc1cnc(N)s1)NCCCc1cnc(N)s1 [Compound 59] then?
MET

====

test-target: hH3R (Homo sapiens)
method-description: Radioligand competition binding with [3H]Nα-methylhistamine, Sf9 cell membranes
run-conditions: hH3R pKi, [3H]Nα-methylhistamine (Kd 8.6 nM, c = 3 nM); mean ± SEM
pKi: −log10 of the molar value.
Binary classification by pKi, with 7 as an inclusive lower bound for fulfilled; all other cases are not fulfilled.

structure-smiles | category-label
CCCCCCCCCCCCNC(=N)NCCCc1sc(N)nc1C | not fulfilled

Check the entry Cc1nc(N)sc1CCCNC(=N)NCCCCCCCCNC(=N)NCCCc1cnc(N)s1 : does pKi equal or exceed 7?
not fulfilled

For CCCCCCCCCCCCNC(=N)NCCCc1cnc(N)s1 then?
not fulfilled

====

test-target: UniProtKB Q9Y5N1
method-description: [35S]GTPγS binding assay, Sf9 cell membranes
Format: biochemical
Entries and their hH3R Emax
// response body must contain only the number

structure-smiles | test-target | hH3R Emax
N=C(NCCCCCCCCCCCCNC(=N)NCCCc1c[nH]cn1)NCCCc1c[nH]cn1 | UniProtKB Q9Y5N1 | 0
N=C(NCCCCCCCCNC(=N)NCCCc1cnc(N)s1)NCCCc1cnc(N)s1 | UniProtKB Q9Y5N1 | 0
N=C(NCCCCCCCCNC(=N)NCCCc1c[nH]cn1)NCCCc1c[nH]cn1 | UniProtKB Q9Y5N1 | 0
Cc1nc(N)sc1CCCNC(=N)NCCCCCCCCNC(=N)NCCCc1c[nH]cn1 | UniProtKB Q9Y5N1 | 0
Cc1nc(N)sc1CCCNC(=N)NCCCCCCCCNC(=N)NCCCc1sc(N)nc1C | UniProtKB Q9Y5N1 | 0
CCCCCCCCCCCCNC(=N)NCCCc1sc(N)nc1C | UniProtKB Q9Y5N1 | 0

For the compound shown here, Cc1nc(N)sc1CCCNC(=N)NCCCCCCCCNC(=N)NCCCc1cnc(N)s1 , give the reported hH3R Emax.
0

For N=C(NCCCCCCCCNC(=N)NCCCc1cnc(N)s1)NCCCc1c[nH]cn1 then?
0
